target: CYP2C19 (Homo sapiens, UniProt P33261); experiment: Inhibition of CYP2C19 (unknown origin) at 10 uM relative to control; assay type: ADME
Sequence (P33261 whole entry): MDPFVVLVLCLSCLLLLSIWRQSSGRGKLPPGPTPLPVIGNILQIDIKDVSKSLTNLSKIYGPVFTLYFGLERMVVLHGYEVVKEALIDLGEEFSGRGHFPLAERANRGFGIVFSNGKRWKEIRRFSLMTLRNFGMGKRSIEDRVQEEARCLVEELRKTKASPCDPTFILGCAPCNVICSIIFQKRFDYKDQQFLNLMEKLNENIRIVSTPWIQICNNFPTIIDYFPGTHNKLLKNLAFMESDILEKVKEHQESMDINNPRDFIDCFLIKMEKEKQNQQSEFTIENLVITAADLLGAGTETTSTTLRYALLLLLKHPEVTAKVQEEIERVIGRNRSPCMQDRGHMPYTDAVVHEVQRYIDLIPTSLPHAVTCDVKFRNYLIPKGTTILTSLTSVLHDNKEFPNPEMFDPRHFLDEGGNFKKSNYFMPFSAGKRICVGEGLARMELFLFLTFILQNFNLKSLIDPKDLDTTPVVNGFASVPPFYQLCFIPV
Observable: inhibition at 10 µM (%)
Unit % implied. Number only.

I have this compound here, `O=c1[nH]c(Nc2cc(Cl)cc(Cl)c2)nc2cccc(O)c12` , and I need its recorded inhibition at 10 µM.
12

###

target: hERG (KCNH2) (Homo sapiens, UniProt Q12809); test: Inhibition of human ERG at 10 uM relative to control
Sequence (Q12809 whole entry): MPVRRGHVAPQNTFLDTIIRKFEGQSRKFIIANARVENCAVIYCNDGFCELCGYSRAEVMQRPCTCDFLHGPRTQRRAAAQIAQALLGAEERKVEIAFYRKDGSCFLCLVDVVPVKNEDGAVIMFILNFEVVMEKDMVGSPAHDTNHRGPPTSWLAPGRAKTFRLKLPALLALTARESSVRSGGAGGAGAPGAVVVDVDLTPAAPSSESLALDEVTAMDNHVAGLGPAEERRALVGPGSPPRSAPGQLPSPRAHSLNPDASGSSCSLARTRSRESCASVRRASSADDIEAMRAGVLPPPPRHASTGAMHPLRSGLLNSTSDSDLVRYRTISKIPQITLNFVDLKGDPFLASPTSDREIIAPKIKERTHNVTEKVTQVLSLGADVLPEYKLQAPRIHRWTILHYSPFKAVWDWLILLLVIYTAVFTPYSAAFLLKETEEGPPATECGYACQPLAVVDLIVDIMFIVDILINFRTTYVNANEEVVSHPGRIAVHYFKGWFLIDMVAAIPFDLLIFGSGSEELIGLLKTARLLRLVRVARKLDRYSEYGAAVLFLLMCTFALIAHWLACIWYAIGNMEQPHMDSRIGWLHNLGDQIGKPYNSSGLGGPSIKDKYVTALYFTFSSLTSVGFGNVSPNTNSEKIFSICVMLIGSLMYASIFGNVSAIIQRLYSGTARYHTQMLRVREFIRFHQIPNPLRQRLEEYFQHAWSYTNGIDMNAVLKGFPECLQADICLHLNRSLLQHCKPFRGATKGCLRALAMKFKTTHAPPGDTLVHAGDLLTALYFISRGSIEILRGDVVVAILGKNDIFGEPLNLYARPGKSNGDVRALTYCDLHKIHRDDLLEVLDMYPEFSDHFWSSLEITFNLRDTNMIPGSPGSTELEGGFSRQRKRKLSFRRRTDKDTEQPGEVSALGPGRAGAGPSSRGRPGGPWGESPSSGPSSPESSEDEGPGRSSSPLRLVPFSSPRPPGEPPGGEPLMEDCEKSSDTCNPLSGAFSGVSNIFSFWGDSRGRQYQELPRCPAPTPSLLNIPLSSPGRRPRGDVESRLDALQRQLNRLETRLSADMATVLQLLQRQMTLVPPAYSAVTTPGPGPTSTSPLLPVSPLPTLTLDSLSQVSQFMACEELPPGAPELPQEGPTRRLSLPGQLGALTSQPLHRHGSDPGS
Observable: inhibition at 10 µM (%)
Unit % implied. Number only.

I have this molecule here, `O=c1[nH]c(Nc2cc(Cl)cc(Cl)c2)nc2cc(Cl)ccc12` , and I need its recorded inhibition at 10 µM.
38

// switching to the query molecule
I have this molecule here, `O=c1[nH]c(Nc2cc(Cl)cc(Cl)c2)nc2cccc(O)c12` , and I need its recorded inhibition at 10 µM.
28

###

assay: Stability in human microsomes assessed as as parent compound remaining after 30 mins; format: ADME, Microsome; conditions: read-out: Stabilty
Observable: remaining at 0.5 h (%)
Unit % implied. Number only.

I have this molecule here, `O=c1[nH]c(Nc2cc(Cl)cc(Cl)c2)nc2cc(Cl)ccc12` , and I need its recorded remaining at 0.5 h.
99

// switching to the query molecule
I have this molecule here, `O=c1[nH]c(Nc2cc(Cl)cc(Cl)c2)nc2cccc(O)c12` , and I need its recorded remaining at 0.5 h.
55

###

List of remaining at 0.5 h values.
experiment: Stability in rat microsomes assessed as as parent compound remaining after 30 mins; format: ADME, Microsome; conditions: read-out: Stabilty
# number then unit; no other words

I have this molecule here, `O=c1[nH]c(Nc2cc(Cl)cc(Cl)c2)nc2cccc(O)c12` , and I need its recorded remaining at 0.5 h.
54%

// switching to the query molecule
I have this molecule here, `O=c1[nH]c(Nc2cc(Cl)cc(Cl)c2)nc2cc(Cl)ccc12` , and I need its recorded remaining at 0.5 h.
105%

###

test: AUC in rat at 5 mg/kg, iv; type: ADME, organism-based; parameters: dose 5 mg/kg; settings: in vivo
Observable: AUC (ng·h/mL)
Unit ng·h/mL implied. Number only.

I have this compound here, `O=c1[nH]c(Nc2cc(Cl)cc(Cl)c2)nc2cccc(O)c12` , and I need its recorded AUC.
6500

###

test: Stability in mouse microsomes assessed as as parent compound remaining after 30 mins; type: ADME, Microsome; conditions: read-out: Stabilty
List of remaining at 0.5 h values.
Unit % implied. Number only.

I have this compound here, `O=c1[nH]c(Nc2cc(Cl)cc(Cl)c2)nc2cc(Cl)ccc12` , and I need its recorded remaining at 0.5 h.
112

I have this compound here, `O=c1[nH]c(Nc2cc(Cl)cc(Cl)c2)nc2cccc(O)c12` , and I need its recorded remaining at 0.5 h.
42

###

test system: HFL1; experiment: Cytotoxicity against human HFL-1 cells; assay type: cell-based
List of CC50 values.
# number then unit; no other words

I have this compound here, `O=c1[nH]c(Nc2cc(Cl)cc(Cl)c2)nc2cccc(O)c12` , and I need its recorded CC50.
9.6 µM

I have this compound here, `O=c1[nH]c(Nc2cc(Cl)cc(Cl)c2)nc2cc(Cl)ccc12` , and I need its recorded CC50.
7.5 µM

The measurements presented in this section are drawn from ChEMBL document CHEMBL4732249.
